target: T1, human MHC class II DR protein (DRA*0101/DRB1*0401), purified from PRIESS cells (human, UniProt P01903 26-254; P01911 30-266, limits assumed); test: SPR (BIAcore), MHCII on CM5 chip
T1 construct: mature; also called HLA-DR protein; MHCII
T1 MHC II alpha: not shown
T1 MHC II beta: not shown
measure: log10 of koff (log10 of the value in s⁻¹)

INSERT INTO measurements (binder, result_value) VALUES
  ('MS-GPC-8-27-7 Fab (Fab, V domains shown, Fab: VH-CH1 with FLAG tag and STREP tag II, VL-CL; VH residue 1 is Q in Fab) VH: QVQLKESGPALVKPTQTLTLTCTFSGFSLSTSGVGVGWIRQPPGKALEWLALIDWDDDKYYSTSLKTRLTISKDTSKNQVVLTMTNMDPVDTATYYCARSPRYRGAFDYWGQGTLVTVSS VL: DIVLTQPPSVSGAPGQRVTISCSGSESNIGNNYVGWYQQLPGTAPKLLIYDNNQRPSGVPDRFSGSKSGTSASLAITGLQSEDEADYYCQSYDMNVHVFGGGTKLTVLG', -3.24),
  ('MS-GPC-8-17 Fab (Fab, V domains shown, Fab: VH-CH1 with FLAG tag and STREP tag II, VL-CL; VH residue 1 is Q in Fab; also called 7BA) VH: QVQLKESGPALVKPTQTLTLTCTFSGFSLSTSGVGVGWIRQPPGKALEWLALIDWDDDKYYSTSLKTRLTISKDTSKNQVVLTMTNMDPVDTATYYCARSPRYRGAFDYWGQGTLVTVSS VL: DIVLTQPPSVSGAPGQRVTISCSGSSSNIGSNYVSWYQQLPGTAPKLLIYDNNQRPSGVPDRFSGSKSGTSASLAITGLQSEDEADYYCQSYDFSVYVFGGGTKLTVLG', -2.26),
  ('MS-GPC-8-27-41 Fab (Fab, V domains shown, Fab: VH-CH1 with FLAG tag and STREP tag II, VL-CL; VH residue 1 is Q in Fab; also called 1D09C3) VH: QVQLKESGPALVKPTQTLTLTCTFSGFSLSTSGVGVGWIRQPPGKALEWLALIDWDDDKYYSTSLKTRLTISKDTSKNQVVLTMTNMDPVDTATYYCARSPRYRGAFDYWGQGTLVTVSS VL: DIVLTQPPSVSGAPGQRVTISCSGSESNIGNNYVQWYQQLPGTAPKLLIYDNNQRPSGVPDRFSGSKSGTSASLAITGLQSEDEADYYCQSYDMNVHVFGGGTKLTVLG', -3.31),
  ('MS-GPC-8-9 Fab (Fab, V domains shown, Fab: VH-CH1 with FLAG tag and STREP tag II, VL-CL; VH residue 1 is Q in Fab) VH: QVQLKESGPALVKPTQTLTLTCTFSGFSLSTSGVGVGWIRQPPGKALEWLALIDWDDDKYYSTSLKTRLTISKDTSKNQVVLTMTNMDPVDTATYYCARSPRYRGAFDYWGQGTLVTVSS VL: DIVLTQPPSVSGAPGQRVTISCSGSSSNIGSNYVSWYQQLPGTAPKLLIYDNNQRPSGVPDRFSGSKSGTSASLAITGLQSEDEADYYCQSYDIQLHVFGGGTKLTVLG', -1.78),
  ('MS-GPC-8-10 Fab (Fab, V domains shown, Fab: VH-CH1 with FLAG tag and STREP tag II, VL-CL; VH residue 1 is Q in Fab) VH: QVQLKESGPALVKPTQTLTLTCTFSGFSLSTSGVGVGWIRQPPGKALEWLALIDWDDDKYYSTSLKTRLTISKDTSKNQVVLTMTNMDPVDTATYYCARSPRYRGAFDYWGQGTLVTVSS VL: DIVLTQPPSVSGAPGQRVTISCSGSSSNIGSNYVSWYQQLPGTAPKLLIYDNNQRPSGVPDRFSGSKSGTSASLAITGLQSEDEADYYCQSYDLIRHVFGGGTKLTVLG', -2.15),
  ('MS-GPC-8-18 Fab (Fab, V domains shown, Fab: VH-CH1 with FLAG tag and STREP tag II, VL-CL; VH residue 1 is Q in Fab) VH: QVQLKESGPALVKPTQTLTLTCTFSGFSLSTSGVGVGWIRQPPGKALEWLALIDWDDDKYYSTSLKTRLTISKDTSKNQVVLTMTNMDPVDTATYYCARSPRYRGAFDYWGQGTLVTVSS VL: DIVLTQPPSVSGAPGQRVTISCSGSSSNIGSNYVSWYQQLPGTAPKLLIYDNNQRPSGVPDRFSGSKSGTSASLAITGLQSEDEADYYCQSYDFSIYVFGGGTKLTVLG', -2.08),
  ('MS-GPC-8-6-45 Fab (Fab, V domains shown, Fab: VH-CH1 with FLAG tag and STREP tag II, VL-CL; VH residue 1 is Q in Fab) VH: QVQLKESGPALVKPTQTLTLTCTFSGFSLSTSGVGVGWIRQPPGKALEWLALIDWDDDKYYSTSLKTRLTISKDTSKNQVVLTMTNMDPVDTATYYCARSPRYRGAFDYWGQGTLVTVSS VL: DIVLTQPPSVSGAPGQRVTISCSGSEPNIGSNYVFWYQQLPGTAPKLLIYDNNQRPSGVPDRFSGSKSGTSASLAITGLQSEDEADYYCQSYDYDHYVFGGGTKLTVLG', -2.99),
  ('MS-GPC-8-1 Fab (Fab, V domains shown, Fab: VH-CH1 with FLAG tag and STREP tag II, VL-CL; VH residue 1 is Q in Fab) VH: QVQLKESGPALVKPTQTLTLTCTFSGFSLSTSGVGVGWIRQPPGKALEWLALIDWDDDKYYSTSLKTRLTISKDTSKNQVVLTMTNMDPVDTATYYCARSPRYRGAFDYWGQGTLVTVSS VL: DIVLTQPPSVSGAPGQRVTISCSGSSSNIGSNYVSWYQQLPGTAPKLLIYDNNQRPSGVPDRFSGSKSGTSASLAITGLQSEDEADYYCQSYDFSHYVFGGGTKLTVLG', -1.68),
  ('MS-GPC-8-27-10 Fab (Fab, V domains shown, Fab: VH-CH1 with FLAG tag and STREP tag II, VL-CL; VH residue 1 is Q in Fab) VH: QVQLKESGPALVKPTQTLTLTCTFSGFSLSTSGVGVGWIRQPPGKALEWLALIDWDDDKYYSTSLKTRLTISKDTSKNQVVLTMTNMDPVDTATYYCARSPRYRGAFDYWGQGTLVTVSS VL: DIVLTQPPSVSGAPGQRVTISCSGSESNIGANYVNWYQQLPGTAPKLLIYDNNQRPSGVPDRFSGSKSGTSASLAITGLQSEDEADYYCQSYDMNVHVFGGGTKLTVLG', -3.28),
  ('MS-GPC-8-6-19 Fab (Fab, V domains shown, Fab: VH-CH1 with FLAG tag and STREP tag II, VL-CL; VH residue 1 is Q in Fab) VH: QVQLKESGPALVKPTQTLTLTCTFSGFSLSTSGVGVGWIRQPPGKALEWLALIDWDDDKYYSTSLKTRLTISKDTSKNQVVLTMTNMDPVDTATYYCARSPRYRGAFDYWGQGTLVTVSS VL: DIVLTQPPSVSGAPGQRVTISCSGSESNIGSNYVAWYQQLPGTAPKLLIYDNNQRPSGVPDRFSGSKSGTSASLAITGLQSEDEADYYCQSYDYDHYVFGGGTKLTVLG', -3.02);
